assay.system: UniProt P05177
Sequence (P05177 whole entry): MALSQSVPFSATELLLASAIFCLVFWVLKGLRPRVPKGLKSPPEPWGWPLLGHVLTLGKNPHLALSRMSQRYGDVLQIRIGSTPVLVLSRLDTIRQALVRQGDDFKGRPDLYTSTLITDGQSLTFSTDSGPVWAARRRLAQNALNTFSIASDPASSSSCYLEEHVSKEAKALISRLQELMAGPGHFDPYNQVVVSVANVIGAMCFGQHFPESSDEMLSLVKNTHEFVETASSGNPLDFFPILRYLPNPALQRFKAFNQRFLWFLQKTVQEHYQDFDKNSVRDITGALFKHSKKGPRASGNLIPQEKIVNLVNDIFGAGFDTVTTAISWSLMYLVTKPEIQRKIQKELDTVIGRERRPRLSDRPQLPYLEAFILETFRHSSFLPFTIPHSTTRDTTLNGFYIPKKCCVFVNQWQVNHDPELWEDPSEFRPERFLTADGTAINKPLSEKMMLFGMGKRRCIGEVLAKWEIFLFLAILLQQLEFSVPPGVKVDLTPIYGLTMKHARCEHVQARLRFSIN
assay.details: Cytochrome P450 activity inhibition, CYP1A2
Type: in vitro ADME
condition.description: 10 μM, human liver microsomes
measurement.type: CYP inhibition (% of control) 1A2

| molecule | assay.system | measurement.type | experimental.result |
| --- | --- | --- | --- |
| OCCC/C(=C(\c1ccc(Br)cc1)c1ccc(N2CCNCC2)cc1)c1ccccc1 [Compound 20a] | UniProt P05177 | CYP inhibition (% of control) 1A2 | 85 % of control |
| Nc1ccc(/C(=C(\CCCO)c2ccccc2)c2ccc(C3CCN(C4CC4)CC3)cc2)cc1 [Compound 26d] | UniProt P05177 | CYP inhibition (% of control) 1A2 | >100 % of control |
| CN1CCCC1CCOc1ccc(/C(=C(/CCCO)c2ccccc2)c2ccc(O)cc2)cc1 (stereo not shown) [Compound 6g] | UniProt P05177 | CYP inhibition (% of control) 1A2 | 97.8 % of control |
| OCCC/C(=C(/c1ccc(C2CCN(C3CC3)CC2)cc1)c1cccc(O)c1)c1ccccc1 [Compound 22r] | UniProt P05177 | CYP inhibition (% of control) 1A2 | >100 % of control |
